B1: FAM189A2 (parent)
chain: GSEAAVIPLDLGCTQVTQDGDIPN

Variants of: B1
Assay: protein stability index of a GFP-peptide fusion (GPS, HEK-293T) (PSI 1-6); higher = more stable;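 also: lentivirally expressed fusions sorted by FACS into six bins by GFP to DsRed ratio, PSI derived from sequencing read proportions per bin multiplied by bin number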
Conditions: c terminus: a fixed tail appended
measured parameter: protein stability index
Respond with the number and no other words.

Answered examples (5):
S2W
3.93
P8V
2.54
G12R
4.87
T17N
5.19
D10F
3.9

QUERY: Record request: protein stability index value, item `P23C`
RESULT: 4.93

QUERY: For `I7V` then?
RESULT: 5.23

QUERY: For `P8Y` then?
RESULT: 2.83

QUERY: For `C13Y` then?
RESULT: 5.3

QUERY: For `V16A` then?
RESULT: 4.95

QUERY: For `D19H` then?
RESULT: 4.91
